test system: Escherichia coli TOP10; assay: shrunken log2 fold change of peptide-encoding DNA abundance (4.5 h post-induction vs induction); higher = less antimicrobial activity (less host growth inhibition); settings: time post-induction: 4.5 h; library: site-saturation at positions 5, 18, 19, 20
Catalogue of sequences with associated shrunken log2 fold change
METRIC_NAME: shrunken log2 fold change

| SEQ_TEXT | SYSTEM_UNDER_TEST | METRIC_NAME | RESULT |
| --- | --- | --- | --- |
| RRIRVRPPRLPRPRPRPYVIPRP | Escherichia coli TOP10 | shrunken log2 fold change | -0.189 |
| RRIRQRPPRLPRPRPRPQLGPRP | Escherichia coli TOP10 | shrunken log2 fold change | -0.194 |
| RRIRIRPPRLPRPRPRPAMVPRP | Escherichia coli TOP10 | shrunken log2 fold change | -0.547 |
| RRIRLRPPRLPRPRPRPTLFPRP | Escherichia coli TOP10 | shrunken log2 fold change | 0.0945 |
| RRIRLRPPRLPRPRPRPNNCPRP | Escherichia coli TOP10 | shrunken log2 fold change | -0.207 |
| RRIRNRPPRLPRPRPRPVPPPRP | Escherichia coli TOP10 | shrunken log2 fold change | 0.234 |
| RRIRKRPPRLPRPRPRPVSAPRP | Escherichia coli TOP10 | shrunken log2 fold change | 0.887 |
| RRIRCRPPRLPRPRPRPEFQPRP | Escherichia coli TOP10 | shrunken log2 fold change | 0.0126 |
| RRIRVRPPRLPRPRPRPWSEPRP | Escherichia coli TOP10 | shrunken log2 fold change | -0.00215 |
| RRIRWRPPRLPRPRPRPFCQPRP | Escherichia coli TOP10 | shrunken log2 fold change | -0.0441 |
| RRIRCRPPRLPRPRPRPPEFPRP | Escherichia coli TOP10 | shrunken log2 fold change | 0.0967 |
| RRIRIRPPRLPRPRPRPTWDPRP | Escherichia coli TOP10 | shrunken log2 fold change | 0.372 |
| RRIRNRPPRLPRPRPRPKSNPRP | Escherichia coli TOP10 | shrunken log2 fold change | -0.294 |
| RRIRYRPPRLPRPRPRPTKWPRP | Escherichia coli TOP10 | shrunken log2 fold change | -0.489 |
| RRIRRRPPRLPRPRPRPIVKPRP | Escherichia coli TOP10 | shrunken log2 fold change | -0.0348 |

###

tested on: Escherichia coli TOP10; assay: shrunken log2 fold change of peptide-encoding DNA abundance (4.5 h post-induction vs induction); higher = less antimicrobial activity (less host growth inhibition); conditions: time post-induction: 4.5 h; library: site-saturation at positions 5, 18, 19, 20

| SEQ_TEXT | shrunken log2 fold change |
| --- | --- |
| RRIRSRPPRLPRPRPRPGGGPRP | 0.908 |
| RRIRYRPPRLPRPRPRPRGDPRP | 0.316 |
| RRIRARPPRLPRPRPRPSDNPRP | -0.183 |
| RRIRTRPPRLPRPRPRPKDCPRP | 0.0164 |
| RRIRVRPPRLPRPRPRPVLWPRP | 0.453 |
| RRIRCRPPRLPRPRPRPNRGPRP | -0.00554 |
| RRIRPRPPRLPRPRPRPNQQPRP | 0.0352 |
| RRIRGRPPRLPRPRPRPCDCPRP | -0.0193 |
| RRIRGRPPRLPRPRPRPMIKPRP | 2.22 |
| RRIRPRPPRLPRPRPRPEVHPRP | 0.551 |
| RRIRKRPPRLPRPRPRPPQMPRP | 0.278 |
| RRIRQRPPRLPRPRPRPMPYPRP | -0.0574 |
| RRIRIRPPRLPRPRPRPFGLPRP | -0.129 |
| RRIRYRPPRLPRPRPRPSTGPRP | -0.0197 |
| RRIRFRPPRLPRPRPRPPGLPRP | 0.573 |
| RRIRWRPPRLPRPRPRPNHYPRP | -0.605 |
| RRIRVRPPRLPRPRPRPILRPRP | 0.0599 |
| RRIRMRPPRLPRPRPRPQIFPRP | -0.0615 |
| RRIRRRPPRLPRPRPRPGGMPRP | 0.235 |
| RRIRSRPPRLPRPRPRPKRCPRP | -0.0384 |
| RRIRKRPPRLPRPRPRPILTPRP | -0.149 |
| RRIRMRPPRLPRPRPRPLVLPRP | 0.141 |
| RRIRQRPPRLPRPRPRPYKCPRP | -0.334 |
| RRIRLRPPRLPRPRPRPTNIPRP | -0.421 |
| RRIRIRPPRLPRPRPRPCGVPRP | -0.153 |
| RRIRTRPPRLPRPRPRPARKPRP | 0.179 |
| RRIRYRPPRLPRPRPRPDVQPRP | -0.0317 |
| RRIRTRPPRLPRPRPRPNQQPRP | 0.00192 |
| RRIRHRPPRLPRPRPRPPCCPRP | -0.0551 |
| RRIRMRPPRLPRPRPRPDIWPRP | 1.41 |
| RRIRRRPPRLPRPRPRPFFAPRP | 0.98 |
| RRIRTRPPRLPRPRPRPLPIPRP | -0.0647 |
| RRIRWRPPRLPRPRPRPIMWPRP | 0.181 |
| RRIRQRPPRLPRPRPRPGVDPRP | 0.244 |
| RRIRIRPPRLPRPRPRPLWKPRP | 0.145 |
| RRIRMRPPRLPRPRPRPVRHPRP | 0.237 |
| RRIRKRPPRLPRPRPRPSRTPRP | 0.391 |
| RRIRTRPPRLPRPRPRPGGKPRP | -0.215 |
| RRIRYRPPRLPRPRPRPVGEPRP | 0.207 |
| RRIRYRPPRLPRPRPRPKNEPRP | -0.372 |
| RRIRGRPPRLPRPRPRPNCFPRP | 0.268 |
| RRIRHRPPRLPRPRPRPMTHPRP | -0.235 |
| RRIRWRPPRLPRPRPRPKKWPRP | 0.254 |
| RRIRNRPPRLPRPRPRPDKTPRP | -0.0594 |
| RRIRCRPPRLPRPRPRPNRDPRP | -0.167 |
| RRIRNRPPRLPRPRPRPQHDPRP | -0.25 |
| RRIRTRPPRLPRPRPRPVGNPRP | 0.0924 |
| RRIRARPPRLPRPRPRPIKTPRP | 0.213 |
| RRIRWRPPRLPRPRPRPQQQPRP | 0.108 |
| RRIRERPPRLPRPRPRPQEQPRP | -0.0202 |
| RRIRFRPPRLPRPRPRPWYNPRP | -0.134 |
| RRIRYRPPRLPRPRPRPEYDPRP | -0.104 |
| RRIRMRPPRLPRPRPRPCIKPRP | 0.0207 |
| RRIRCRPPRLPRPRPRPVKWPRP | -0.24 |
| RRIRHRPPRLPRPRPRPCAGPRP | -0.195 |
| RRIRFRPPRLPRPRPRPGRYPRP | -0.0275 |
| RRIRFRPPRLPRPRPRPHEDPRP | 0.0846 |
| RRIRSRPPRLPRPRPRPDRKPRP | -0.0693 |
| RRIRWRPPRLPRPRPRPYVNPRP | -0.355 |
| RRIRPRPPRLPRPRPRPPKSPRP | 0.177 |
| RRIRCRPPRLPRPRPRPIWHPRP | -0.239 |
| RRIRWRPPRLPRPRPRPLEWPRP | 0.0624 |
| RRIRFRPPRLPRPRPRPVASPRP | 0.0266 |

###

tested on: Escherichia coli TOP10; experiment: shrunken log2 fold change of peptide-encoding DNA abundance (4.5 h post-induction vs induction); higher = less antimicrobial activity (less host growth inhibition); conditions: time post-induction: 4.5 h; library: site-saturation at positions 5, 18, 19, 20;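 note: peptides expressed intracellularly from a pBAD plasmid library in pooled LB shake-flask culture, induced with 0.3% L-arabinose, DNA abundance read by NGS, three biological replicates, DESeq2 with apeglm shrinkage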

| SEQ_TEXT | shrunken log2 fold change |
| --- | --- |
| RRIRLRPPRLPRPRPRPSHVPRP | -0.0453 |
| RRIRFRPPRLPRPRPRPKRCPRP | 0.383 |
| RRIRWRPPRLPRPRPRPMIDPRP | -0.579 |
| RRIRFRPPRLPRPRPRPGFNPRP | -0.22 |
| RRIRIRPPRLPRPRPRPRGAPRP | 0.175 |
| RRIRDRPPRLPRPRPRPYGDPRP | -0.0996 |
| RRIRFRPPRLPRPRPRPGRGPRP | 0.607 |
| RRIRTRPPRLPRPRPRPIISPRP | -0.0891 |
| RRIRLRPPRLPRPRPRPTFKPRP | -0.0433 |
| RRIRRRPPRLPRPRPRPVWRPRP | 0.436 |
| RRIRCRPPRLPRPRPRPDAAPRP | 1.03 |
| RRIRERPPRLPRPRPRPPHTPRP | -0.152 |
| RRIRWRPPRLPRPRPRPIYWPRP | -0.208 |
| RRIRHRPPRLPRPRPRPIHKPRP | -1.25 |
| RRIRARPPRLPRPRPRPMHGPRP | 0.311 |
